- Test system: LNCaP-Vancouver prostate cells
- protocol: In vitro LNCaP Vancouver prostate cell proliferation assay in lipid reduced medium
- Type: cell-based
- reported-conditions: read-out: pIC50 LNCaP_Vancouver prostate cell (converted)
Would you kindly list log10 of IC50 for each of these compounds?
Note: values are log10 of IC50 expressed in nM.

Given the compound N#Cc1ccc2cc(-c3ccc(C4=NC5(CC5)C(=O)N4CC4CN(C(=O)C5CC5)C4)c(F)c3)ccc2c1 , what is its reported log10 of IC50?
1.67

Same thing, different compound: Cn1nc(C#N)c2ccc(-c3ccc(C4=NC5(CC5)C(=O)N4C[C@@H]4CCN(C(=O)C5CC5)C4)cc3)cc21
3.10

Moving on to O=C(N1CCCC1)N1CC(CN2C(=O)C3(CCOCC3)N=C2c2ccc(-c3ccc4cccnc4c3)cc2)C1
3.66

Follow-up entry: Cc1cc(-c2ccc3[nH]ccc3c2)ccc1C1=NC2(CC2)C(=O)N1CC1CN(C(=O)C2CC2)C1
2.47

// repeat for Cc1cc(-c2ccc(-c3cnn(C)c3)cc2)ccc1C1=NC2(CC2)C(=O)N1C[C@@H]1CCN(C(=O)C2CC2)C1 and report
2.01

----------
- subject-of-test: hFASN enzyme (full length) (Homo sapiens, UniProt P49327)
- Construct: 10 μL hFASN enzyme (full length, 300 ng, purified in house); made in house
- Sequence (P49327 whole entry): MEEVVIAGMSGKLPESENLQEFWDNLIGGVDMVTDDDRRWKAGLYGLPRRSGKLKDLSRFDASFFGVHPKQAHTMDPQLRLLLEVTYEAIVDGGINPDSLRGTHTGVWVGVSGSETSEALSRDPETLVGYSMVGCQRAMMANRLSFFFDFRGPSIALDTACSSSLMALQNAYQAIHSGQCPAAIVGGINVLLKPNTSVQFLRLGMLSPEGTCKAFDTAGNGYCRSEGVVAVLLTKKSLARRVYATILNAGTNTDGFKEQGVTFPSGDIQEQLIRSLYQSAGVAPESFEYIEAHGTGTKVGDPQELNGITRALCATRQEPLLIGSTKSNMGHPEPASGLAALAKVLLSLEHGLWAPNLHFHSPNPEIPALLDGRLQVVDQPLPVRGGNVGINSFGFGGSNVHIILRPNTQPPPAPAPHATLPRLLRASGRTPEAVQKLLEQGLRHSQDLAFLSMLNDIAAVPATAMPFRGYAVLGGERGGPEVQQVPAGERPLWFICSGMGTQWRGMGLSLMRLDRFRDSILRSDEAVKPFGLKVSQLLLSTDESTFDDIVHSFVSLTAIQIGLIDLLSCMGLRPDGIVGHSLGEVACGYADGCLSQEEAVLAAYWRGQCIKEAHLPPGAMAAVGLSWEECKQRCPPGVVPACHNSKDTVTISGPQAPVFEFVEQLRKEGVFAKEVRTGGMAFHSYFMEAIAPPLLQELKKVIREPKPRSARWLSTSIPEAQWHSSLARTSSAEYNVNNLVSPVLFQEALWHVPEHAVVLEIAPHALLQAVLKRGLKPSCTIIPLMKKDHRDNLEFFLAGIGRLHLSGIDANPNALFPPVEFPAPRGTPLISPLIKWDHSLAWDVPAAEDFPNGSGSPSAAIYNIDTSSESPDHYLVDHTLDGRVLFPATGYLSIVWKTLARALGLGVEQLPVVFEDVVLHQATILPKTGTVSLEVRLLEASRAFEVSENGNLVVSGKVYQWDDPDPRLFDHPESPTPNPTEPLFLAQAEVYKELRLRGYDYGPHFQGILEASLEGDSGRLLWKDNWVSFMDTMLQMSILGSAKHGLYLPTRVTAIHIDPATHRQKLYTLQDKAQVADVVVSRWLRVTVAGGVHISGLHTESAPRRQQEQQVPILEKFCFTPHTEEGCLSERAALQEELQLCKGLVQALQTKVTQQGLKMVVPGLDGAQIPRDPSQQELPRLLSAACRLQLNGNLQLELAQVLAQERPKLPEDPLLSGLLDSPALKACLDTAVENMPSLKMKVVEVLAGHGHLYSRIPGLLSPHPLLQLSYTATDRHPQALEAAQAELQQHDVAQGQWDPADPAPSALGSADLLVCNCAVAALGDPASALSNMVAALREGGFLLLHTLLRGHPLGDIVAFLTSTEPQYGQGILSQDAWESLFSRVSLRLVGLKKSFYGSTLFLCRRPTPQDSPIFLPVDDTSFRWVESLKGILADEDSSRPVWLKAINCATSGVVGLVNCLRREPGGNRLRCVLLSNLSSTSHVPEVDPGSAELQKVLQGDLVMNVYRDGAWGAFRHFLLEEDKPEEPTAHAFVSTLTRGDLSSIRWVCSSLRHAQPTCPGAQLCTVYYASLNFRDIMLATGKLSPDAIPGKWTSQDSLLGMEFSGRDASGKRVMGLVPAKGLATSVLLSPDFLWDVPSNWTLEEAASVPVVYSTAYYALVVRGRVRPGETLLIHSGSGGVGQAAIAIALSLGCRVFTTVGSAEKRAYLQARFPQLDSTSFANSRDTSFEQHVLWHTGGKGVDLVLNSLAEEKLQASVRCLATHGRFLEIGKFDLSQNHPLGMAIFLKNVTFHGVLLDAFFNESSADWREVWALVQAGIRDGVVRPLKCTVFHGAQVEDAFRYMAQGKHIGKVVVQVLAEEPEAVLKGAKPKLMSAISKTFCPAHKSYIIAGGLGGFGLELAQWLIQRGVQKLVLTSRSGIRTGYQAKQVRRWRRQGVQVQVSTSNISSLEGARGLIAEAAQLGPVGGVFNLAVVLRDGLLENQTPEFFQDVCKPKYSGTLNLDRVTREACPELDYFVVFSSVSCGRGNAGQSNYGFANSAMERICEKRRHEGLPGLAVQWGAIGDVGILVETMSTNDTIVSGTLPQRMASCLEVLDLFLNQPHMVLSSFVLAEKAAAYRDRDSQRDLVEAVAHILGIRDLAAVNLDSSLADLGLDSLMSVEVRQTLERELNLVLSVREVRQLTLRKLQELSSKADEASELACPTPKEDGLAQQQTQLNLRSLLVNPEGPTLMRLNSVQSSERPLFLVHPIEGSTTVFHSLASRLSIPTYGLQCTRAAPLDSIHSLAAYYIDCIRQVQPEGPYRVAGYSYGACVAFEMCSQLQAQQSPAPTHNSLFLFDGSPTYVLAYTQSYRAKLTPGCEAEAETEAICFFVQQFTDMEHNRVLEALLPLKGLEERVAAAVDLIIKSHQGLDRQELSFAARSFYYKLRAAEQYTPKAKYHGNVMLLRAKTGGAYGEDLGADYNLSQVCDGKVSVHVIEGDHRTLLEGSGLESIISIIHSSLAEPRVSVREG
- protocol: Fatty Acid Synthase (FASN) inhibition scintillation proximity assay
- Format: biochemical
- reported-conditions: read-out: Human FASN pIC50 (converted)
endpoint: IC50

Fill in: IC50 of O=C(c1nccs1)N1CCC(CN2C(=O)C3(CCOC3)N=C2c2ccc(-c3ccc4occc4c3)cc2)C1 (stereo not drawn) [compound 934] is ___
> 10 µM

Query COC(=O)N1CC(CN2C(=O)C3(CCOC3)N=C2c2ccc(-c3ccc4cccnc4c3)cc2)C1 (stereo not drawn) [compound 903] next
> 10 µM

Now the molecule COC(=O)N1CC[C@@H](CN2C(=O)C3(CCOCC3)N=C2c2ccc(-c3ccc4occc4c3)cc2)C1 [compound 889]
> 10 µM

----------
- subject-of-test: hFASN enzyme (full length) (Homo sapiens)
- Construct: 10 μL hFASN enzyme (full length, 300 ng, purified in house); made in house
- protocol: Fatty Acid Synthase (FASN) inhibition scintillation proximity assay
- Format: biochemical
- reported-conditions: read-out: Human FASN % inhibition @ 10 μM, 10 μM test compound
- Protocol: In this assay, inhibition of FASN activity is measured using ^3H-acetyl-CoA and malonyl-CoA as substrates. ^3H-Acetyl CoA is converted to ^3H-palmitate through a series of reactions by the FASN protein, which contains 7 functional domains and carries out 7 enzymatic reactions to ultimately produce ^3H-palmitate. The assay principle is based upon the fact that ^3H-acetyl-CoA is hydrophilic and the end product, ^3H-palmitate is hydrophobic. […]
endpoint: inhibition at 10 µM (%)
Express the result in % but write the number alone.

May I ask what inhibition at 10 µM has been recorded for COC(=O)N1CC(CN2C(=O)C3(CCOC3)N=C2c2ccc(-c3ccc4cccnc4c3)cc2)C1 (stereo not drawn) [compound 903] ?
15

How about O=C(C1CC1)N1CC[C@@H](CN2C(=O)C3(CC3)N=C2c2ccc(-c3ccc4cc[nH]c4c3)cc2F)C1 [compound 247] ?
103

Another: Cc1cc2cc(-c3ccc(C4=NC5(CC5)C(=O)N4C[C@@H]4CCN(C(=O)C5CC5)C4)c(F)c3)ccc2s1 [compound 243]
104

// next record O=C(C1CC1)N1CC(CN2C(=O)C3(CC3)N=C2c2ccc(-c3ccc(-n4ccnc4)nc3)cc2F)C1 [compound 526]
93

Moving on to Cc1cc(-c2ccc3ccc(Cl)nc3c2)ccc1C1=NC2(CC2)C(=O)N1CC1CN(C(=O)C2(C)CC2)C1 [compound 594]
102

Subsequent entry: N#Cc1ccc2sc(-c3ccc(C4=NC5(CC5)C(=O)N4CC4CN(C(=O)C5CC5)C4)c(F)c3)nc2c1 [compound 652]
97

Would you mind doing Cc1cc2cc(-c3ccc(C4=NC5(CC5)C(=O)N4C[C@@H]4CCN(C(=O)C5CC5)C4)c(C)c3)ccc2o1 [compound 280] as well?
109

Note, next up: O=C(C1CC1)N1CC(CN2C(=O)C3(CCCC3)N=C2c2ccc(-c3ccc4cnccc4c3)cc2)C1 [compound 79]
108

For Cc1ccc2c(-c3ccc(C4=NC5(CC5)C(=O)N4CC4CN(C(=O)C5CC5)C4)c(F)c3)cccc2n1 [compound 575] then?
52

Here is the next compound: O=C(C1CC1)N1CC[C@@H](CN2C(=O)C3(CC3)N=C2c2ccc(-c3ccc(O)cc3)cc2)C1 [compound 64]
92.9

Now consider CN(C)CC(=O)N1CCC2(CC1)N=C(c1ccc(-c3ccc4[nH]ncc4c3)cc1)N(C[C@@H]1CCN(C(=O)C3CC3)C1)C2=O [compound 165] .
108

Also check COCCN1CCC2(CC1)N=C(c1ccc(-c3ccc4[nH]ccc4c3)cc1)N(C[C@@H]1CCN(C(=O)C3CC3)C1)C2=O [compound 747]
96

Param item: O=C(C1CC1)N1CC[C@@H](CN2C(=O)C3(CC3)N=C2c2ccc(-c3ccc4c(Cl)nccc4c3)cc2)C1 [compound 479]
95

Same again, this time with O=C(C1CC1)N1CC(CN2C(=O)C3(CC3)N=C2c2ccc(-c3ccc(-n4ccnc4)nc3)cc2)C1 [compound 509]
69

Moving on to the next compound: O=C(C1CC1)N1CC[C@@H](CN2C(=O)C3(CCCC3)N=C2c2ccc(-c3ccc4ncccc4c3)cc2)C1 [compound 11]
82.2

For CC(C)C(=O)N1CCC2(CC1)N=C(c1ccc(-c3ccc4c(cnn4C)c3)cc1)N(CC1CN(C(=O)C3CC3)C1)C2=O [compound 135] then?
78.9

Input CCn1ncc2cc(-c3ccc(C4=NC5(CC5)C(=O)N4CC4CN(C(=O)C5CC5)C4)cc3)ccc21 [compound 505]
80

Entry Cc1cc2cc(-c3ccc(C4=NC5(CC5)C(=O)N4CC4CN(C(=O)C5CC5)C4)c(C)c3)ccc2o1 [compound 289] please
102

----------
- subject-of-test: hFASN enzyme (full length) (Homo sapiens, UniProt P49327)
- Construct: 10 μL hFASN enzyme (full length, 300 ng, purified in house); made in house
- protocol: Fatty Acid Synthase (FASN) inhibition scintillation proximity assay
- Type: biochemical
- reported-conditions: read-out: Human FASN % inhibition @ 10 μM, 10 μM test compound
endpoint: inhibition at 10 µM (%)
Field format: number, assumed %, no unit text.

Any idea what inhibition at 10 µM was measured for Cn1nc(CO)c2ccc(-c3ccc(C4=NC5(CC5)C(=O)N4C[C@@H]4CCN(C(=O)C5CC5)C4)cc3)cc21 ?
96

Also check Cc1cc(-c2ccc3ccc(C#N)nc3c2)ccc1C1=NC2(CC2)C(=O)N1CC1CN(C(=O)C2(C)CC2)C1
84

Now the molecule CC(C)n1ccc2cc(-c3ccc(C4=NC5(CC5)C(=O)N4CC4CN(C(=O)C5CC5)C4)c(F)c3)ccc21
84

----------
- subject-of-test: hFASN enzyme (full length) (Homo sapiens)
- Construct: 10 μL hFASN enzyme (full length, 300 ng, purified in house); made in house
- protocol: Fatty Acid Synthase (FASN) inhibition scintillation proximity assay
- Assay type: biochemical
- reported-conditions: read-out: Human FASN % inhibition @ 10 μM, 10 μM test compound
- Method: In this assay, inhibition of FASN activity is measured using ^3H-acetyl-CoA and malonyl-CoA as substrates. ^3H-Acetyl CoA is converted to ^3H-palmitate through a series of reactions by the FASN protein, which contains 7 functional domains and carries out 7 enzymatic reactions to ultimately produce ^3H-palmitate. The assay principle is based upon the fact that ^3H-acetyl-CoA is hydrophilic and the end product, ^3H-palmitate is hydrophobic. […]
Provide the reported inhibition at 10 µM of each item.
Provide only the numeric value, understood in %.

Would you kindly share the measured inhibition at 10 µM for O=C(C1CC1)N1CC[C@@H](CN2C(=O)C3(CC3)N=C2c2ccc(-c3ccc4c(c3)CCCO4)cc2)C1 [compound 464] ?
66

How about Cc1cc(C2=NC3(CC3)C(=O)N2CC2CN(C(=O)C3CC3)C2)ccc1-c1ccc2oc(C#N)cc2c1 [compound 460] ?
63

What about this compound? COC(=O)N1CC2(C1)N=C(c1ccc(-c3ccc(-c4cnn(C)c4)cc3)cc1)N(C[C@@H]1CCN(C(=O)[C@H]3CCCO3)C1)C2=O [compound 727]
98

Next compound: O=C(C1CC1)N1CC(CN2C(=O)C3(CCNCC3)N=C2c2ccc(-c3ccc4cnccc4c3)cc2)C1 [compound 132]
83.7

Now try Cn1ccc2cc(-c3ccc(C4=NC5(CC5)C(=O)N4CC4CN(C(=O)C5CC5)C4)cc3)ccc21 [compound 344] .
99

Ok, now Cc1cc(-c2ccc(-c3cnn(C)c3)cc2)ccc1C1=NC2(CC2)C(=O)N1CC1CN(C(=O)C2CC2)C1 [compound 333]
98

Values were extracted from patent US10077261B2.
